- Tested on: Staphylococcus aureus
- Protocol Details: Antibacterial activity against methicillin-resistant Staphylococcus aureus ATCC 43300 at 102.4 mg/ml after 24 hrs by disc diffusion method
- Type: functional
- Experimental Parameters: ATCC 43300, 24 h, read-out: DIZ
Measured Property: zone of inhibition at 102400 µg/mL
// return the numeric value with its unit appended

Examples with answers:
compound=O=C(/C=C/c1ccccc1O)c1ccccc1 target_or_test_system="Staphylococcus aureus" result_value="11 mm"
compound=O=C(/C=C/c1ccccc1O)c1ccc(Br)cc1 target_or_test_system="Staphylococcus aureus" result_value="13 mm"
compound="O=C(/C=C/c1ccc(O)cc1)c1ccccc1 [4-HYDROXYCHALCONE]" target_or_test_system="Staphylococcus aureus" result_value="9 mm"

Next:
# get_value(readout='zone of inhibition at 102400 µg/mL', item= O=C(/C=C/c1ccccc1O)c1ccccc1O )
14 mm
